protocol_details: Plasma pharmacokinetics after single topical Felpreva at 2.5x and 5x dose multiples (Study 2)
experimental_conditions: European Shorthair (ESH), in vivo, topical or ocular, Tmax, cats, Study 2, single topical Felpreva 2.5x, 0.37 ml/kg, n = 8, geometric mean
Method: Altogether three studies were conducted. Each AI and treatment were evaluated separately. All parameters were derived from individual animal data sets. Relative data set weight was always set to 1.
endpoint_name: Tmax (h)
Just the number please, in h, no unit attached.

Name the recorded Tmax for CC(C)C[C@H]1C(=O)O[C@H](Cc2ccc(N3CCOCC3)cc2)C(=O)N(C)[C@@H](CC(C)C)C(=O)O[C@H](C)C(=O)N(C)[C@@H](CC(C)C)C(=O)O[C@H](Cc2ccc(N3CCOCC3)cc2)C(=O)N(C)[C@@H](CC(C)C)C(=O)O[C@H](C)C(=O)N1C [Emodepside, emodepside] .
47.8

====

protocol_details: in vivo
experimental_conditions: Domestic Shorthair, in vivo, iv, 0.2 mg/kg
endpoint_name: half-life

For the compound CC(C)C[C@H]1C(=O)O[C@H](Cc2ccc(N3CCOCC3)cc2)C(=O)N(C)[C@@H](CC(C)C)C(=O)O[C@H](C)C(=O)N(C)[C@@H](CC(C)C)C(=O)O[C@H](Cc2ccc(N3CCOCC3)cc2)C(=O)N(C)[C@@H](CC(C)C)C(=O)O[C@H](C)C(=O)N1C [Emodepside, emodepside] , what half-life is on record?
202 h

====

protocol_details: Plasma pharmacokinetics after single topical Felpreva at 2.5x and 5x dose multiples (Study 2)
experimental_conditions: European Shorthair (ESH), in vivo, topical or ocular, Tmax, cats, Study 2, single topical Felpreva 5x, 0.74 ml/kg, n = 8, geometric mean
endpoint_name: Tmax (h)
Please reply with the bare figure in h and do not write the unit itself.

What does the data say about its Tmax? Entry: CC(C)C[C@H]1C(=O)O[C@H](Cc2ccc(N3CCOCC3)cc2)C(=O)N(C)[C@@H](CC(C)C)C(=O)O[C@H](C)C(=O)N(C)[C@@H](CC(C)C)C(=O)O[C@H](Cc2ccc(N3CCOCC3)cc2)C(=O)N(C)[C@@H](CC(C)C)C(=O)O[C@H](C)C(=O)N1C [Emodepside, emodepside]
61.9

====

protocol_details: in vivo
experimental_conditions: Domestic Shorthair, topical or ocular
endpoint_name: bioavailability (%)
The response must be a number in % with no trailing unit.

For the compound CC(C)C[C@H]1C(=O)O[C@H](Cc2ccc(N3CCOCC3)cc2)C(=O)N(C)[C@@H](CC(C)C)C(=O)O[C@H](C)C(=O)N(C)[C@@H](CC(C)C)C(=O)O[C@H](Cc2ccc(N3CCOCC3)cc2)C(=O)N(C)[C@@H](CC(C)C)C(=O)O[C@H](C)C(=O)N1C [Emodepside, emodepside] , what bioavailability is on record?
90

====

protocol_details: in vivo
experimental_conditions: Domestic Shorthair, topical or ocular
endpoint_name: AUC(0-inf) (ng·h/mL)
Field format: number, assumed ng·h/mL, no unit text.

// query AUC(0-inf) value for entry CC(C)C[C@H]1C(=O)O[C@H](Cc2ccc(N3CCOCC3)cc2)C(=O)N(C)[C@@H](CC(C)C)C(=O)O[C@H](C)C(=O)N(C)[C@@H](CC(C)C)C(=O)O[C@H](Cc2ccc(N3CCOCC3)cc2)C(=O)N(C)[C@@H](CC(C)C)C(=O)O[C@H](C)C(=O)N1C [Emodepside, emodepside]
20600
